- system name: recombinant human acetylcholinesterase, rHsAChE (Homo sapiens)
- Sequence (P22303 32-614): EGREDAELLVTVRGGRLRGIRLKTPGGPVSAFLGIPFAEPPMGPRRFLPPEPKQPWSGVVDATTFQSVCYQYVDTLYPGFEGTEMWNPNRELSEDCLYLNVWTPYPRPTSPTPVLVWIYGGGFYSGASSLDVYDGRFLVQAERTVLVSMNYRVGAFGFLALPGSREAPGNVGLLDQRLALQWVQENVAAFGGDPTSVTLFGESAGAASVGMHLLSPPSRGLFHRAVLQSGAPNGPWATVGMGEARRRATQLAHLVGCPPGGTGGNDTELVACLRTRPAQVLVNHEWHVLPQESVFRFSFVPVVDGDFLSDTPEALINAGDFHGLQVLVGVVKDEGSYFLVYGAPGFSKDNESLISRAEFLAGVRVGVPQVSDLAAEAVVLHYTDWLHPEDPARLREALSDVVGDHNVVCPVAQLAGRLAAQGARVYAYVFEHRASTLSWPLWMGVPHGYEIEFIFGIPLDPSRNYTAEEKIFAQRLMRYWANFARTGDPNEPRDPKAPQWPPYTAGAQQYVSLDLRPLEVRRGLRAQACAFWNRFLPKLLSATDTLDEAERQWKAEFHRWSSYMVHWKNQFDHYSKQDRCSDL
- procedure summary: biochemical
- experimental parameters: read-out: IC50 (µM) rHsAChE
# IC50 per entry
Return type: number; implicit unit µM.

As a guide, the following entries are already answered.
O=C(O)CNC(=O)c1c(O)c2ccccc2n(Cc2ccccc2)c1=O [IOX2, reference compound]; 7.75
CC(C)c1onc(-c2c(Cl)cccc2Cl)c1COc1ccc(/C=C/c2cccc(C(=O)O)c2)c(Cl)c1 [GW-4064, reference compound]; 8.83
COc1ccc(/C=C/CCCCOc2ccc(C(=O)c3cccc(C(=O)O)c3)cc2CCC(=O)O)cc1 [LY223982, reference compound]; 7.22
O=C(Nc1ncc(SCCN2CCCC2)s1)[C@]1(c2ccc(S(=O)(=O)C3CC3)cc2)C[C@H]1C1CCCCC1 [LY2608204, reference compound]; 0.52

// IC50 value for Cc1cnc(Nc2ccc(N3CCN(C)CC3)cc2)nc1Nc1cccc(S(=O)(=O)NC(C)(C)C)c1 [TG-101209, reference compound] : 15.4

Reference source: paper PMC12154458
